- Test system: Aphis craccivora
- METHOD: Insecticidal activity against Aphis craccivora by immersing (mortality after 24 hours)
- Format: in vivo
- CONDITION CONTEXT: in vivo
PROPERTY LABEL: Aphis craccivora LC50 (ppm)
Mention the unit after the number when you answer.

Check out these entries, answers already filled in.
CCOC1CC([N+](=O)[O-])=C2N(Cc3ccc(Cl)nc3)CCN2C1O (stereo not shown); 70.9 ppm
CC(C)OC1CC(C)C([N+](=O)[O-])=C2N(Cc3ccc(Cl)nc3)CCN21 (stereo not shown); 20.5 ppm
CCCC1CC(O)N2CCN(Cc3ccc(Cl)nc3)C2=C1[N+](=O)[O-] (stereo not shown); 75.2 ppm

What Aphis craccivora LC50 (ppm) value was documented for this compound, CCOC1CC(O)N2CCN(Cc3ccc(Cl)nc3)C2=C1[N+](=O)[O-] (stereo not shown) ?
66.4 ppm

So what does the record say about Aphis craccivora LC50 (ppm) for COC1CC([N+](=O)[O-])=C2N(Cc3ccc(Cl)nc3)CCN2C1O (stereo not shown) ?
47.6 ppm

What does the data say about its Aphis craccivora LC50 (ppm)? Entry: CC1CC(O)N2CCN(Cc3cnc(Cl)s3)C2=C1[N+](=O)[O-] (stereo not shown)
68 ppm

Which Aphis craccivora LC50 (ppm) is reported for this compound? CC1C([N+](=O)[O-])=C2N(Cc3ccc(Cl)nc3)CCN2C(O)C1C (stereo not shown)
86.4 ppm

Requested field: Aphis craccivora LC50 (ppm). Item: CCOC1CC(C)C([N+](=O)[O-])=C2N(Cc3ccc(Cl)nc3)CCN21 (stereo not shown)
65.4 ppm

Name the recorded Aphis craccivora LC50 (ppm) for CC1CC(O)N2CCN(Cc3ccc(Cl)nc3)C2=C1[N+](=O)[O-] (stereo not shown) .
31.5 ppm

###

- System: Nilaparvata lugens
- METHOD: Insecticidal activity against Nilaparvata lugens by spraying (mortality after 24 hours)
- Assay type: in vivo
- CONDITION CONTEXT: Nilaparvata lugens, 24 h, read-out: Mortality (%) (500 ppm) Nilaparvata lugens
PROPERTY LABEL: mortality at 500 ppm (%)
Express the result in % but write the number alone.

Past entries and their recorded results:
CC1C([N+](=O)[O-])=C2N(Cc3ccc(Cl)nc3)CCN2C(O)C1C (centres unmarked); 100
CCCCOC1CC(C)C([N+](=O)[O-])=C2N(Cc3ccc(Cl)nc3)CCN21 (centres unmarked); 100
CC1CC(O)N2CCN(Cc3ccc(Cl)nc3)C2=C1[N+](=O)[O-] (centres unmarked); 100

Query compound follows.
// lookup mortality at 500 ppm for COC1CC(C)C([N+](=O)[O-])=C2N(Cc3ccc(Cl)nc3)CCN21 (centres unmarked)
100

###

- Test system: Aphis craccivora
- METHOD: Insecticidal activity against Aphis craccivora by immersing (mortality after 24 hours)
- Type: in vivo
- CONDITION CONTEXT: in vivo
PROPERTY LABEL: Mortality (%) (500 ppm) Aphis craccivora
Answer with a number only, understood to be in %.

Name the reported Mortality (%) (500 ppm) Aphis craccivora value associated with the compound CC1(C)CC(O)N2CCN(Cc3ccc(Cl)nc3)C2=C1[N+](=O)[O-] (stereo not drawn)
96

###

Entries and their Mortality (%) (500 ppm) Nilaparvata lugens
- System: Nilaparvata lugens
- METHOD: Insecticidal activity against Nilaparvata lugens by spraying (mortality after 24 hours)
- Type: in vivo
- CONDITION CONTEXT: 500 ppm; spraying 2 ml; counted after 24 hours
I only need the number, in %, no unit after it.

Worked examples, 4 compounds total:
CCOC1C(C)CC([N+](=O)[O-])=C2N(Cc3ccc(Cl)nc3)CCN21 (centres unmarked) [Compound 19]; 100
COC1CC(C)(C)C([N+](=O)[O-])=C2N(Cc3ccc(Cl)nc3)CCN21 (centres unmarked) [Compound 32]; 100
C=CCOC1CC(C)C([N+](=O)[O-])=C2N(Cc3ccc(Cl)nc3)CCN21 (centres unmarked) [Compound 9]; 100
CCCCCOC1CC(C)C([N+](=O)[O-])=C2N(Cc3ccc(Cl)nc3)CCN21 (centres unmarked) [Compound 8]; 80

Consider now this further compound.
Field request: Mortality (%) (500 ppm) Nilaparvata lugens | item: CCC1C(C)C([N+](=O)[O-])=C2N(Cc3ccc(Cl)nc3)CCN2C1O (centres unmarked) [Compound 33]
78

###

- System: Nilaparvata lugens
- METHOD: Insecticidal activity against Nilaparvata lugens by spraying (mortality after 24 hours)
- Assay type: in vivo
- CONDITION CONTEXT: 500 ppm; spraying 2 ml; counted after 24 hours
PROPERTY LABEL: Mortality (%) (500 ppm) Nilaparvata lugens
The reply should contain only the number, in %.

COC1CC(C)C([N+](=O)[O-])=C2N(CC3CCOC3)CCN21 (stereo not drawn) [Compound 16]; 67
CCCC1CC(O)N2CCN(Cc3ccc(Cl)nc3)C2=C1[N+](=O)[O-] (stereo not drawn) [Compound 24]; 89
CC(C)OC1CC(C)C([N+](=O)[O-])=C2N(Cc3ccc(Cl)nc3)CCN21 (stereo not drawn) [Compound 6]; 100
COC1CC(O)N2CCN(Cc3cnc(Cl)s3)C2=C1[N+](=O)[O-] (stereo not drawn) [Compound 44]; 97
CC1(C)CC(O)N2CCN(Cc3ccc(Cl)nc3)C2=C1[N+](=O)[O-] (stereo not drawn) [Compound 31]; 100

Need Mortality (%) (500 ppm) Nilaparvata lugens of CCCC1C(C)C([N+](=O)[O-])=C2N(Cc3ccc(Cl)nc3)CCN2C1O (stereo not drawn) [Compound 34] , thanks.
90

###

Reported Aphis craccivora LC50 (ppm) values for the following compounds.
- System: Aphis craccivora
- METHOD: Insecticidal activity against Aphis craccivora by immersing (mortality after 24 hours)
- Type: in vivo
- CONDITION CONTEXT: in vivo
Write down the numeric answer in ppm and omit the unit.

Examples from the recorded data:
COC1CC(O)N2CCN(Cc3ccc(Cl)nc3)C2=C1[N+](=O)[O-] (stereo not shown); 40.5
COC1CC(C)C([N+](=O)[O-])=C2N(Cc3ccc(Cl)nc3)CCN21 (stereo not shown); 50.8
CCC1CC([N+](=O)[O-])=C2N(Cc3ccc(Cl)nc3)CCN2C1OC (stereo not shown); 83.0

Which value of Aphis craccivora LC50 (ppm) has been reported for CCC1CC([N+](=O)[O-])=C2N(Cc3ccc(Cl)nc3)CCN2C1O (stereo not shown) in the records?
57.3

Looking for the measured Aphis craccivora LC50 (ppm) of CCCOC1CC(C)C([N+](=O)[O-])=C2N(Cc3ccc(Cl)nc3)CCN21 (stereo not shown) , can you help?
33.6

Field request: Aphis craccivora LC50 (ppm) | item: CC1CC([N+](=O)[O-])=C2N(Cc3ccc(Cl)nc3)CCN2C1O (stereo not shown)
36.3

Query: Aphis craccivora LC50 (ppm); subject: CCC1C([N+](=O)[O-])=C2N(Cc3ccc(Cl)nc3)CCN2C(O)C1C (stereo not shown)
75.9

###

- System: Nilaparvata lugens
- METHOD: Insecticidal activity against Nilaparvata lugens by spraying (mortality after 24 hours)
- Assay type: in vivo
- CONDITION CONTEXT: Nilaparvata lugens, 24 h, read-out: Mortality (%) (500 ppm) Nilaparvata lugens
PROPERTY LABEL: mortality at 500 ppm (%)
Return type: number; implicit unit %.

Solved entries (count: 5):
O=[N+]([O-])C1=C2N(Cc3ccc(Cl)nc3)CCN2C(O)CC1c1ccccc1 (stereo not shown); 0
CC1CC(O)N2CCN(Cc3cnc(Cl)s3)C2=C1[N+](=O)[O-] (stereo not shown); 100
CCOC1CC(C)C([N+](=O)[O-])=C2N(Cc3ccc(Cl)nc3)CCN21 (stereo not shown); 100
COC1CC([N+](=O)[O-])=C2N(Cc3ccc(Cl)nc3)CCN2C1O (stereo not shown); 73
CC1CC([N+](=O)[O-])=C2N(Cc3ccc(Cl)nc3)CCN2C1O (stereo not shown); 100

Dear colleague, I am looking for the recorded mortality at 500 ppm of the following compound: COC1CC(O)N2CCN(Cc3ccc(Cl)nc3)C2=C1[N+](=O)[O-] (stereo not shown)
97

Returns the measured mortality at 500 ppm for the input compound. Input: CC(=O)OC1CC(C)C([N+](=O)[O-])=C2N(Cc3ccc(Cl)nc3)CCN21 (stereo not shown)
100

###

Listed here: items and their measured Mortality (%) (500 ppm) Aphis craccivora.
- Tested on: Aphis craccivora
- METHOD: Insecticidal activity against Aphis craccivora by immersing (mortality after 24 hours)
- Assay type: in vivo
- CONDITION CONTEXT: in vivo
Enter your answer as a number in %; do not include the unit.

The examples below pair each entry with its known result.
C=CCOC1CC(C)C([N+](=O)[O-])=C2N(Cc3ccc(Cl)nc3)CCN21 (centres unmarked); 98
COC1CC([N+](=O)[O-])=C2N(Cc3cnc(Cl)s3)CCN2C1O (centres unmarked); 85
COC1CC(c2ccccc2)C([N+](=O)[O-])=C2N(Cc3ccc(Cl)nc3)CCN21 (centres unmarked); 45

Which Mortality (%) (500 ppm) Aphis craccivora is reported for this compound? CC1CC([N+](=O)[O-])=C2N(Cc3cnc(Cl)s3)CCN2C1O (centres unmarked)
90

Request the reported Mortality (%) (500 ppm) Aphis craccivora associated with CCCC1C(C)C([N+](=O)[O-])=C2N(Cc3ccc(Cl)nc3)CCN2C1O (centres unmarked)
95

Any idea what its Mortality (%) (500 ppm) Aphis craccivora is? The compound is COC1CC(O)N2CCN(Cc3cnc(Cl)s3)C2=C1[N+](=O)[O-] (centres unmarked)
100

Item under review: CCCC1CC(O)N2CCN(Cc3ccc(Cl)nc3)C2=C1[N+](=O)[O-] (centres unmarked) . Reported Mortality (%) (500 ppm) Aphis craccivora?
97

Query: Mortality (%) (500 ppm) Aphis craccivora; subject: C#CCOC1CC(C)C([N+](=O)[O-])=C2N(Cc3ccc(Cl)nc3)CCN21 (centres unmarked)
43

So what's the measured Mortality (%) (500 ppm) Aphis craccivora for this one? COC1CC(C)C([N+](=O)[O-])=C2N(CC3CCOC3)CCN21 (centres unmarked)
45

Field request: Mortality (%) (500 ppm) Aphis craccivora | item: CCOC1CC(C)C([N+](=O)[O-])=C2N(Cc3cnc(Cl)s3)CCN21 (centres unmarked)
98

Please report the recorded Mortality (%) (500 ppm) Aphis craccivora for CC(C)OC1CC(C)C([N+](=O)[O-])=C2N(Cc3ccc(Cl)nc3)CCN21 (centres unmarked) .
100

Suppose we examine the compound CCOC1CC(O)N2CCN(Cc3ccc(Cl)nc3)C2=C1[N+](=O)[O-] (centres unmarked) ; what Mortality (%) (500 ppm) Aphis craccivora value has been reported?
100

# Mortality (%) (500 ppm) Aphis craccivora lookup, item CCCC1CC([N+](=O)[O-])=C2N(Cc3ccc(Cl)nc3)CCN2C1O (centres unmarked)
100

Find the recorded Mortality (%) (500 ppm) Aphis craccivora belonging to CCCCC1CC(O)N2CCN(Cc3ccc(Cl)nc3)C2=C1[N+](=O)[O-] (centres unmarked) and report it.
72

GET /values?readout=Mortality (%) (500 ppm) Aphis craccivora&item= CCOC1CC([N+](=O)[O-])=C2N(Cc3ccc(Cl)nc3)CCN2C1O (centres unmarked)
98

Endpoint output: Mortality (%) (500 ppm) Aphis craccivora of CCCOC1C(C)CC([N+](=O)[O-])=C2N(Cc3ccc(Cl)nc3)CCN21 (centres unmarked) . Value?
86

Please look up its Mortality (%) (500 ppm) Aphis craccivora: CCC1CC([N+](=O)[O-])=C2N(Cc3ccc(Cl)nc3)CCN2C1OC (centres unmarked)
92

Report Mortality (%) (500 ppm) Aphis craccivora for CCOC1CC(C)C([N+](=O)[O-])=C2N(CC3CCOC3)CCN21 (centres unmarked) please.
89

Look up Mortality (%) (500 ppm) Aphis craccivora: CCCOC1CC(C)C([N+](=O)[O-])=C2N(Cc3cnc(Cl)s3)CCN21 (centres unmarked)
100

Any idea what its Mortality (%) (500 ppm) Aphis craccivora is? The compound is CCCC1CC([N+](=O)[O-])=C2N(Cc3ccc(Cl)nc3)CCN2C1OCC (centres unmarked)
100

What value of Mortality (%) (500 ppm) Aphis craccivora has been recorded for this entry: CCC1CC(O)N2CCN(Cc3ccc(Cl)nc3)C2=C1[N+](=O)[O-] (centres unmarked)
93

Endpoint output: Mortality (%) (500 ppm) Aphis craccivora of COC1C(C)C([N+](=O)[O-])=C2N(Cc3ccc(Cl)nc3)CCN2C1O (centres unmarked) . Value?
100

So what's the measured Mortality (%) (500 ppm) Aphis craccivora for this one? CC1CC(O)N2CCN(CC3CCOC3)C2=C1[N+](=O)[O-] (centres unmarked)
24

Consider the compound CCC1C(O)N2CCN(Cc3ccc(Cl)nc3)C2=C([N+](=O)[O-])C1(C)C (centres unmarked) and give its measured Mortality (%) (500 ppm) Aphis craccivora.
99

Reported Mortality (%) (500 ppm) Aphis craccivora, compound CCC1CC(OC(C)C)N2CCN(Cc3ccc(Cl)nc3)C2=C1[N+](=O)[O-] (centres unmarked) : ____
65

Hello, the source for this data is patent US20090111847A1, in case you need it.
